Cited source: patent US4081441A

- assaySummary: Mouse blood (serum) antibiotic levels after single intramuscular dose
- Type: in vivo
- testContext: im, mice, 40 mg./kg. i.m., 30 min., read-out: Blood Level
endpoint: concentration at 0.5 h (ng/mL)
Numbers only here, please. The scale is ng/mL.

### Prompt Quick one: concentration at 0.5 h for CC1(C)S[C@@H]2[C@H](NC(=O)[C@H](NC(=O)c3n[nH]c(=S)[nH]c3=O)c3ccc(O)cc3)C(=O)N2[C@H]1C(=O)O ?
### Response 10300

---

- assaySummary: Mouse blood (plasma) antibiotic levels after single intramuscular dose
- Format: in vivo
- testContext: im, 40 mg/kg, mice, 40 mg./kg. i.m., 30 min., Test 2 (Ave. of 8 mice tested), read-out: Blood Level
endpoint: concentration at 0.5 h (ng/mL)
Numbers only here, please. The scale is ng/mL.

### Prompt Quick one: concentration at 0.5 h for CC1(C)S[C@@H]2[C@H](NC(=O)[C@H](NC(=O)c3n[nH]c(=O)[nH]c3=O)c3ccc(O)cc3)C(=O)N2[C@H]1C(=O)O ?
### Response 15100

---

- assaySummary: Mouse blood (plasma) antibiotic levels after single intramuscular dose
- Format: in vivo
- testContext: im, 40 mg/kg, mice, 40 mg./kg. i.m., 15 min., Test 2 (Ave. of 8 mice tested), read-out: Blood Level
endpoint: concentration at 0.25 h (ng/mL)
Numbers only here, please. The scale is ng/mL.

### Prompt Quick one: concentration at 0.25 h for CC1(C)S[C@@H]2[C@H](NC(=O)[C@H](NC(=O)c3n[nH]c(=O)[nH]c3=O)c3ccc(O)cc3)C(=O)N2[C@H]1C(=O)O [BL-P1908] ?
### Response 28400

---

- assaySummary: Mouse blood (plasma) antibiotic levels after single intramuscular dose
- Assay type: in vivo
- testContext: im, 40 mg/kg, mice, 40 mg./kg. i.m., 60 min., Test 2 (Ave. of 8 mice tested), read-out: Blood Level
endpoint: concentration at 1 h (ng/mL)
Numbers only here, please. The scale is ng/mL.

### Prompt Quick one: concentration at 1 h for CC1(C)S[C@@H]2[C@H](NC(=O)[C@H](NC(=O)c3n[nH]c(=O)[nH]c3=O)c3ccc(O)cc3)C(=O)N2[C@H]1C(=O)O ?
### Response 3000

---

- assaySummary: Mouse blood (plasma) antibiotic levels after single intramuscular dose
- Assay type: in vivo
- testContext: im, 40 mg/kg, mice, 40 mg./kg. i.m., 90 min., Test 2 (Ave. of 8 mice tested), read-out: Blood Level
endpoint: concentration at 1.5 h

### Prompt Quick one: concentration at 1.5 h for CC1(C)S[C@@H]2[C@H](NC(=O)[C@H](NC(=O)c3n[nH]c(=O)[nH]c3=O)c3ccc(O)cc3)C(=O)N2[C@H]1C(=O)O [BL-P1908] ?
### Response < 1800 ng/mL

---

Here the recorded concentration at 0.5 h is given for each entry.
- assaySummary: Mouse blood (plasma) antibiotic levels after single intramuscular dose
- Assay type: in vivo
- testContext: im, 40 mg/kg, mice, 40 mg./kg. i.m., 30 min., Test 1 (Ave. of 6 mice tested), read-out: Blood Level
Numbers only here, please. The scale is ng/mL.

molecule	assayResult
CC1(C)S[C@@H]2[C@H](NC(=O)C(C(=O)O)c3ccccc3)C(=O)N2[C@H]1C(=O)O (some centres unmarked) [Carbenicillin, reference compound]	12500

Proceed to the following item.
### Prompt Quick one: concentration at 0.5 h for CC1(C)S[C@@H]2[C@H](NC(=O)[C@H](NC(=O)c3n[nH]c(=O)[nH]c3=O)c3ccc(O)cc3)C(=O)N2[C@H]1C(=O)O ?
### Response 19400

---

Here the recorded concentration at 0.25 h is given for each entry.
- assaySummary: Mouse blood (plasma) antibiotic levels after single intramuscular dose
- Type: in vivo
- testContext: im, 40 mg/kg, mice, 40 mg./kg. i.m., 15 min., Test 1 (Ave. of 6 mice tested), read-out: Blood Level
Please append the unit to your numeric answer.

compound	assayResult
CC1(C)S[C@@H]2[C@H](NC(=O)[C@H](NC(=O)c3n[nH]c(=O)[nH]c3=O)c3ccc(O)cc3)C(=O)N2[C@H]1C(=O)O	24900 ng/mL

Proceed to the following item.
### Prompt Quick one: concentration at 0.25 h for CC1(C)S[C@@H]2[C@H](NC(=O)C(C(=O)O)c3ccccc3)C(=O)N2[C@H]1C(=O)O (some centres unmarked) [Carbenicillin, reference compound] ?
### Response 19100 ng/mL

---

- assaySummary: Mouse blood (serum) antibiotic levels after single intramuscular dose
- Type: in vivo
- testContext: im, mice, 40 mg./kg. i.m., 90 min., read-out: Blood Level
endpoint: concentration at 1.5 h

### Prompt Quick one: concentration at 1.5 h for CC1(C)S[C@@H]2[C@H](NC(=O)[C@H](NC(=O)c3n[nH]c(=S)[nH]c3=O)c3ccc(O)cc3)C(=O)N2[C@H]1C(=O)O [BL-P1937] ?
### Response < 2200 ng/mL

---

- assaySummary: Mouse blood (serum) antibiotic levels after single intramuscular dose
- Format: in vivo
- testContext: im, mice, 40 mg./kg. i.m., 60 min., read-out: Blood Level
- Protocol: Serum antibiotic levels from mice administered a single intramuscular dose of 40 mg./kg. of BL-[…] or carbenicillin are shown below.
endpoint: concentration at 1 h

### Prompt Quick one: concentration at 1 h for CC1(C)S[C@@H]2[C@H](NC(=O)[C@H](NC(=O)c3n[nH]c(=S)[nH]c3=O)c3ccc(O)cc3)C(=O)N2[C@H]1C(=O)O ?
### Response < 2200 ng/mL

---

- assaySummary: Mouse blood (plasma) antibiotic levels after single intramuscular dose
- Assay type: in vivo
- testContext: im, 40 mg/kg, mice, 40 mg./kg. i.m., 15 min., Ave. of Tests 1 and 2, read-out: Blood Level
endpoint: concentration at 0.25 h (ng/mL)
Numbers only here, please. The scale is ng/mL.

### Prompt Quick one: concentration at 0.25 h for CC1(C)S[C@@H]2[C@H](NC(=O)[C@H](NC(=O)c3n[nH]c(=O)[nH]c3=O)c3ccc(O)cc3)C(=O)N2[C@H]1C(=O)O ?
### Response 26700
